- EXPERIMENTAL TARGET: Full-length human PRMT8 (Homo sapiens)
- Construct: Full-length human PRMT8 (NM_019854.4) isoform 1 transcript clone
- Sequence (Q9NR22 whole entry, canonical isoform): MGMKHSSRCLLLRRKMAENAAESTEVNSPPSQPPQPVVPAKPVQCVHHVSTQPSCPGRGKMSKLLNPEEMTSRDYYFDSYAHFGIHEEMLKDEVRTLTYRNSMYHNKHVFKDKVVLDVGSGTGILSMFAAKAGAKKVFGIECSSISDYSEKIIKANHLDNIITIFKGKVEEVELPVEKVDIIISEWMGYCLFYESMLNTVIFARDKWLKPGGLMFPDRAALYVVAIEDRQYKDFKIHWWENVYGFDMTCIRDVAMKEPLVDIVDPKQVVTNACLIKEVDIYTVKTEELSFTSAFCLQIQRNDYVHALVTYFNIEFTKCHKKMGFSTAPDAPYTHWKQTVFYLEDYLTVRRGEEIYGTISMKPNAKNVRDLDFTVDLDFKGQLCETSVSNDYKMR
- TEST PROTOCOL: PRMT8 biochemical assay (3H-SAM Flashplate, peptide substrate)
Reported IC50 values for a set of compounds

Guide cases for IC50, answers given:
>>> reported("CC(C)Oc1ccc(-c2c[nH]nc2CN(C)CCN)cc1F")
"101 to 1000 nM"
>>> reported("Cc1[nH]nc(-c2ccc(F)cc2)c1CN(C)CCN")
"1010 to 3000 nM"
>>> reported("CC(C)c1ccc(-c2c[nH]nc2CN(C)CCN)cc1")
"101 to 1000 nM"
>>> reported("Cc1ccccc1-c1n[nH]cc1CN(C)CCN")
"1010 to 3000 nM"

Could you now consider this next compound?
Provide IC50 value for the following compound: Cc1ccc(-c2n[nH]cc2CN(C)CCN)c(F)c1
1010 to 3000 nM

Origin of measurements: patent US9346761B2
